Reference source for all entries: paper PMC10714399

Answer each item with its documented MIC.
Tested on: S. aureus ATCC 25923 (methicillin-susceptible)
MEASUREMENT_DESCRIPTION: In vitro antibacterial activity, MIC (UCL), MSSA
Format: cell-based, Staphylococcus aureus
CONDITION: Staphylococcus aureus; UCL assay; read-out: MSSA MIC (ug/mL) (UCL)
Experimental: Staphylococcus aureus NCTC 13373 (mecA-positive; methicillin-resistant, NCTC 13373) was supplied by the National Collection of Type Cultures (NCTC), Public Health England, United Kingdom. […] A suspension of each organism was prepared from an overnight plate culture (tryptone soya agar) in phosphate-buffered saline (PBS) and adjusted to an absorbance reading at 600 nm of 0.1, which is approximately equivalent to 1 × 10^8 colony-forming units (CFU) per mL. […]

Query: Which MIC reading was recorded for the compound CC(C)CN(c1ccc(F)cc1)c1c(-c2ccccn2)nc2ccncn12 [OSA_001039] ?
Response: > 32 µg/mL

Query: Please report the recorded MIC for CC(C)CN(Cc1c(-c2ccccn2)nc2ccccn12)c1ccc(F)cc1 [OSA_001040] .
Response: > 32 µg/mL

Query: Which MIC value is on record for COc1cccc(-c2nc3ccccn3c2N(CC(C)C)c2ccc(F)cc2)n1 [OSA_001025] ?
Response: > 32 µg/mL

Query: What measured MIC goes with CCCCN(Cc1c(-c2ccccn2)nc2cc(C)ccn12)c1ccc(F)cc1 [OSA_001032] ?
Response: 32 µg/mL

Query: So what does the record say about MIC for COc1cc(-c2c(-c3ccccn3)nc3n2CCC3)ccc1C#N [OSA_001076] ?
Response: > 32 µg/mL

Query: # MIC lookup, item COc1ccc(-c2nc3ccccn3c2Nc2ccc(F)cc2)nc1 [OSA_001022]
Response: 8 µg/mL

Query: Which MIC value belongs to Cc1ccn2cc(-c3ccccn3)nc2c1 [OSA_001030] ?
Response: > 32 µg/mL

Query: Which value of MIC has been reported for CC(C)CN(c1ccc(F)cc1)c1c(-c2ccccn2)nc2ccc(S(C)(=O)=O)cn12 [OSA_001037] in the records?
Response: > 32 µg/mL

Query: Value lookup for MIC; key = Cc1ccn2c(CN(CC(C)C)c3cccc(C(F)(F)F)c3)c(-c3ccccn3)nc2c1 [OSA_001033]
Response: > 32 µg/mL

Query: MIC for N#Cc1ccc(-c2c(-c3ccccn3)nc3n2CCC3)cc1C(F)(F)F [OSA_001077] ?
Response: > 32 µg/mL

Query: Report MIC for CC(C)CN(c1ccc(F)cc1)c1c(-c2ccccn2)nc2ccc(F)cn12 [OSA_001024] please.
Response: 8 µg/mL

Query: Reported MIC, compound CC(C)CN(c1ccc(F)cc1)c1c(-c2ccccn2)nc2cnccn12 [OSA_001035] : ____
Response: > 32 µg/mL

Query: Name the reported MIC value associated with the compound N#Cc1ccc(-c2c(-c3ccccn3)nc3cccnn23)cc1 [OSA_001103]
Response: > 32 µg/mL

Query: Look up MIC for this compound: CC(C)CN(c1ccc(F)cc1)c1c(-c2ccccn2)nc2cccnn12 [OSA_001036]
Response: 32 µg/mL

Query: What does the data say about its MIC? Entry: Cc1ccc2nc(-c3ccccc3)cn2c1 [OSA_001026]
Response: > 32 µg/mL

Query: Any idea what MIC was measured for Fc1ccc(-c2c(-c3ccccn3)nc3n2CCC3)cc1 [OSA_001053] ?
Response: > 32 µg/mL
